# MEASURED ON: serotoninergic 5-HT2A receptor (Homo sapiens, UniProt P28223)
# ASSAY: Binding assay 5-HT2A (h), [3H]ketanserin, HEK-293 cells
# Parameters: expressed in transfected cells; host or cells: HEK-293 cells
# STATED CONDITIONS: read-out: 5-HT2A
# inhibition at 1 µM listing for each entry below
Express the result in % but write the number alone.

>>> obs_value("O=S(=O)(NCCCCN1CCN(c2nsc3ccccc23)CC1)c1cccs1 [Compound 238]")
95
>>> obs_value("O=S(=O)(NCCCCN1CCN(c2cccc3c2OCCO3)CC1)c1cccc(Br)c1 [Compound 391]")
68
>>> obs_value("O=S(=O)(NCCCCN1CCN(c2cccc3c2OCCO3)CC1)c1cccc(F)c1 [Compound 388]")
19
>>> obs_value("O=C1COc2c(cccc2N2CCN(CCCCNS(=O)(=O)c3ccc(C(F)(F)F)cc3)CC2)N1 [Compound 429]")
35
>>> obs_value("O=S(=O)(NCCCCN1CCN(c2nsc3ccccc23)CC1)c1ccc2ccccc2c1 [Compound 2]")
100

Qu. Need inhibition at 1 µM, item O=S(=O)(NCCCCN1CCC(c2noc3cc(F)ccc23)CC1)c1ccc2c(c1)OCCO2 [Compound 321]
Ans. 100

* * *

# System: adrenergic α1 receptor
# ASSAY: Binding assay α1 (non-selective), [3H]prazosin, rat cerebral cortex
# STATED CONDITIONS: percent inhibition of control specific binding; compounds tested at 1×10^−6 M
# Protocol: The specific ligand binding to the receptors is defined as the difference between the total binding and the nonspecific binding determined in the presence of an excess of so unlabelled ligand. The specific Ligand binding to the receptor is defined as the difference between total and non-specific binding determined in the presence of an excess of unlabelled ligand. The compounds were tested at a concentration of 1×10^−6 M, and scintillation counting was the method of detection of ligand binding.
ASSAY READOUT: α1 [%]
Answer by giving the amount and then stating its unit.

>>> obs_value("O=c1[nH]c2cccc(N3CCN(CCCCNS(=O)(=O)c4cccc(Cl)c4)CC3)c2[nH]1")
"89%"
>>> obs_value("O=S(=O)(NCCCN1CCN(c2cccc3c2OCCO3)CC1)c1ccc2c(c1)CCO2")
"73%"
>>> obs_value("O=S(=O)(NCCCCN1CCN(c2cccc3[nH]ccc23)CC1)c1cccc(C(F)(F)F)c1")
"98%"
>>> obs_value("O=S(=O)(NCCCCN1CCN(c2noc3ccccc23)CC1)c1ccc2cn[nH]c2c1")
"99%"
>>> obs_value("O=S(=O)(NCCCN1CCC(c2noc3cc(F)ccc23)CC1)c1cccc(F)c1")
"100%"

Qu. Which α1 [%] is reported for this compound? O=S(=O)(NCCCCN1CCC(c2noc3cc(F)ccc23)CC1)c1cc2ccccc2o1
Ans. 90%

Qu. Item: Cc1c(S(=O)(=O)NCCCCN2CCC(c3noc4cc(F)ccc34)CC2)sc2ccc(Cl)cc12
Ans. −13%

Qu. # iterate: O=S(=O)(NCCCCN1CCC(c2noc3cc(F)ccc23)CC1)c1cccs1
Ans. 95%

* * *

# MEASURED ON: dopaminergic D2 receptor (Homo sapiens)
# Sequence (P14416 1-414 isoform P14416-2): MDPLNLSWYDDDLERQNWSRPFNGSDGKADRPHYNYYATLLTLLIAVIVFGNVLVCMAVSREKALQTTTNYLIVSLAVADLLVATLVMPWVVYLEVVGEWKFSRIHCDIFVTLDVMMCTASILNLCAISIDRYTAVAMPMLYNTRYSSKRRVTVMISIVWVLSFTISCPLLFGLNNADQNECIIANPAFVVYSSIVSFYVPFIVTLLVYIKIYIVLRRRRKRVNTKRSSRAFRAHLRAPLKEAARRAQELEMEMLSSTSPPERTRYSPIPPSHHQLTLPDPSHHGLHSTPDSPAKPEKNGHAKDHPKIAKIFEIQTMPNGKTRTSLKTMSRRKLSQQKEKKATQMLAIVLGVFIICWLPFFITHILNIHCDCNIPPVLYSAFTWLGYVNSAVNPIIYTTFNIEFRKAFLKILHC
# ASSAY: Binding assay D2S (h), [3H]methyl-spiperone, HEK-293 cells
# Design: expressed in transfected cells; host or cells: HEK-293 cells
# STATED CONDITIONS: read-out: D2 [%]
Assign Yes to entries whose inhibition at 1 µM meets or exceeds 90%; assign No to the rest.

Past entries and their recorded results:
>>> class("O=S(=O)(NCCCCN1CCC(c2noc3cc(F)ccc23)CC1)c1ccc2c(c1)CCO2")
"Yes"
>>> class("O=S(=O)(NCCCCN1CCC(c2noc3cc(F)ccc23)CC1)c1ccc(Cl)s1")
"Yes"
>>> class("O=S(=O)(NCCCN1CCN(c2nsc3ccccc23)CC1)c1cnc2ccccn12")
"Yes"
>>> class("N#Cc1cccc(S(=O)(=O)NCCCN2CCC(c3noc4cc(F)ccc34)CC2)c1")
"Yes"
>>> class("O=S(=O)(NCCCCN1CCC(c2noc3cc(F)ccc23)CC1)c1ccc(-c2ccccc2)cc1")
"Yes"
>>> class("Cc1[nH]c2ccc(Cl)cc2c1C1=CCN(CCCNS(=O)(=O)c2cccc(Cl)c2)CC1")
"No"
>>> class("O=S(=O)(NCCCN1CCC(c2noc3cc(F)ccc23)CC1)c1ccsc1")
"Yes"
>>> class("O=S(=O)(NCCCCN1CCN(c2nsc3ccccc23)CC1)c1cccc(O)c1")
"Yes"

Qu. Tell me whether inhibition at 1 µM is at least 90% here: O=S(=O)(NCCCN1CCN(c2nsc3ccccc23)CC1)c1cccc(Cl)c1
Ans. Yes

Qu. Also, O=S(=O)(NCCN1CCC(c2noc3cc(F)ccc23)CC1)c1cccc2ccccc12 please.
Ans. Yes
